Species on record: Rattus norvegicus
test_name: Open TG-GATES - Regimen: Daily Repeat
Assay type: toxicity, organism-based, Sprague-Dawley
Design: regimen Daily Repeat, gender Male, age 6 weeks
assay_context: in vivo, po, 300 mg/kg, […], tissue Liver, route gavage, dose level Middle, time 28 day
outcome_measure: LIVER (g)
The reply should be a number in g, with the unit left off.

# example entries with known answers
>  <molecule>
CC(S)C(=O)NCC(=O)O (centres undefined)

>  <outcome_measure>
LIVER

>  <experimental_value>
16.5

$$$$
>  <molecule>
O=C(O)c1ccccc1Nc1ccccc1

>  <outcome_measure>
LIVER

>  <experimental_value>
19

$$$$
>  <molecule>
CC(=O)[C@@]1(O)CC[C@H]2[C@@H]3C=C(Cl)C4=CC(=O)CC[C@]4(C)[C@H]3CC[C@@]21C

>  <outcome_measure>
LIVER

>  <experimental_value>
13.4

$$$$

Next, consider the following molecule.
# input Reported LIVER, molecule CCCCNC(=O)NS(=O)(=O)c1ccc(C)cc1 [TOLBUTAMIDE] : ____
# output 15.5
